assay type: in vivo, Sprague-Dawley rats; conditions: male, Sprague-Dawley, rat, plasma, po, 25 mg/kg

>  <smilesInput>
CC(=O)O[C@H]1C(=O)[C@@]2(C)[C@H]([C@H](OC(=O)c3ccccc3)[C@]3(O)C[C@H](OC(=O)[C@H](O)[C@@H](NC(=O)c4ccccc4)c4ccccc4)C(C)=C1C3(C)C)[C@]1(OC(C)=O)CO[C@@H]1C[C@@H]2O

>  <Vd/F, L>
73.6

$$$$

* * *

format: in vivo, Sprague-Dawley rats; details: male, Sprague-Dawley, rat, plasma, po, 25 mg/kg
measuredMetric: Tmax (h)

>  <smilesInput>
CC(=O)O[C@H]1C(=O)[C@@]2(C)[C@H]([C@H](OC(=O)c3ccccc3)[C@]3(O)C[C@H](OC(=O)[C@H](O)[C@@H](NC(=O)c4ccccc4)c4ccccc4)C(C)=C1C3(C)C)[C@]1(OC(C)=O)CO[C@@H]1C[C@@H]2O

>  <measuredMetric>
Tmax

>  <recordedResult>
4.2

$$$$
